target: T1, human soluble urokinase plasminogen activator receptor (suPAR) (human, UniProt Q03405 23-303, limits assumed); experiment: BLI (Octet) off-rate screen of scFv clones
T1 construct: Column head says only 'human'; also called human suPAR; hsuPAR
T1 sequence (Q03405 23-303 limits assumed): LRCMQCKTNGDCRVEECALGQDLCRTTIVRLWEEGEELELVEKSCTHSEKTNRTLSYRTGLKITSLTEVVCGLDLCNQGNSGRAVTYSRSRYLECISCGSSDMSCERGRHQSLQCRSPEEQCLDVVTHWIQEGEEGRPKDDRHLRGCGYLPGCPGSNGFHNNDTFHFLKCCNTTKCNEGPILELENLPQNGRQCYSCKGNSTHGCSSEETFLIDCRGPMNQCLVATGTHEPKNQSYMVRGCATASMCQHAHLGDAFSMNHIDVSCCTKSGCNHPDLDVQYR
Could you please report measured koff for the items listed next?
Reply with just the number (in s⁻¹).

Give the measured koff of suPAR_DB02_E02 (scFv, V domains shown, scFv clone from phage display) VH: QVQLVQSGAEVKKPGASVKVSCKASGYTFTDYYMHWVRQAPGQGLEWMGWIDHENGNTIYDQKFQGRVTMTRDTSTSTVYMELSSLRSEDTAVYYCARGYDVDWFVYWGQGTLVTVSS VL: DIQMTQSPSSLSASVGDRVTITCSARSSVSYMYWYQQKPGKAPKLLIYRTSSLQSGVPSRFSGSGSGTDFTLTISSLQPEDFATYYCQQYHSYPPTFGGGTKVEIK .
0.00438

# input binder: suPAR_DB02_C12 (scFv, V domains shown, scFv clone from phage display) VH: QVQLVQSGAEVKKPGASVKVSCKASGYTLTDYYMHWVRQAPGQGLEWMGWIDPEGGNTSYDQKFQGRVTMTRDTSTSTVYMELSSLRSEDTAVYYCARGYDVDWFVYWGQGTLVTVSS VL: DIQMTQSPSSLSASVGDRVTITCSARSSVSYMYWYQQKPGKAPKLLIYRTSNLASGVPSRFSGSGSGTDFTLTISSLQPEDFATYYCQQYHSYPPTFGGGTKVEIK ; wanted: its koff
0.00319

Form field: reported koff of suPAR_DB02_E07 (scFv, V domains shown, scFv clone from phage display) VH: QVQLVQSGAEVKKPGASVKVSCKASGYNFNAYYMHWVRQAPGQGLEWMGWIDPHSGGTNYAQKFQGRVTMTRDTSTSTVYMELSSLRSEDTAVYYCARGYDVDWFVYWGQGTLVTVSS VL: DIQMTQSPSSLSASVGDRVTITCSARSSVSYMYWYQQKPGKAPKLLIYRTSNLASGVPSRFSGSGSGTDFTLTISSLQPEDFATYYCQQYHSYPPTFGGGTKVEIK
0.00392

If you can, please state the reported koff value of suPAR_DB02_D12 (scFv, V domains shown, scFv clone from phage display) VH: QVQLVQSGAEVKKPGASVKVSCKASGYTFSNYYMHWVRQAPGQGLEWMGWIDHEGGSTIYAQKFQGRVTMTRDTSTSTVYMELSSLRSEDTAVYYCARGYDVDWFVYWGQGTLVTVSS VL: DIQMTQSPSSLSASVGDRVTITCSARSSVSYMYWYQQKPGKAPKLLIYRTSNLASGVPSRFSGSGSGTDFTLTISSLQPEDFATYYCQQSHSYPPTFGGGTKVEIK .
0.00611

Fill in the blank: the reported koff of suPAR_DB02_G03 (scFv, V domains shown, scFv clone from phage display) VH: QVQLVQSGAEVKKPGASVKVSCKASGYTFTSYYMHWVRQAPGQGLEWMGWIDPENGNTIYDQKFQGRVTMTRDTSTSTVYMELSSLRSEDTAVYYCARGYDVDWFVYWGQGTLVTVSS VL: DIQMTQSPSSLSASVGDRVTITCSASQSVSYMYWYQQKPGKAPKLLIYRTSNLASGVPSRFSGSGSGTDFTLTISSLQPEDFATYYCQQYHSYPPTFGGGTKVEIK is ____.
0.00346

So what's the measured koff for this one? suPAR_DB02_F08 (scFv, V domains shown, scFv clone from phage display) VH: QVQLVQSGAEVKKPGASVKVSCKASGYTFTGYYIHWVRQAPGQGLEWMGWIDPENGNTIYAQKFQGRVTMTRDTSTSTVYMELSSLRSEDTAVYYCARGYDVDWFVYWGQGTLVTVSS VL: DIQMTQSPSSLSASVGDRVTITCSASSSISYMYWYQQKPGKAPKLLIYRTSNLASGVPSRFSGSGSGTDFTLTISSLQPEDFATYYCQQYHSYPPTFGGGTKVEIK
0.0021

Requested read-out: koff. Entry: suPAR_DB02_G05 (scFv, V domains shown, scFv clone from phage display) VH: QVQLVQSGAEVKKPGASVKVSCKASGYTFTGHYMHWVRQAPGQGLEWMGWIDPEGGNTIYAQKFQGRVTMTRDTSTSTVYMELSSLRSEDTAVYYCARGYDVDWFVYWGQGTLVTVSS VL: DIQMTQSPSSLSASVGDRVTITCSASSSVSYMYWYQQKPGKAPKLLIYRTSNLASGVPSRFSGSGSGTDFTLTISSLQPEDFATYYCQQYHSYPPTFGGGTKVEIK
0.00242

What does the data say about its koff? Entry: suPAR_DB02_D04 (scFv, V domains shown, scFv clone from phage display) VH: QVQLVQSGAEVKKPGASVKVSCKASGFTIKDYYMHWVRQAPGQGLEWMGWIDPDSGGTNYAEKFQGRVTMTRDTSTSTVYMELSSLRSEDTAVYYCARGYDVDWFVYWGQGTLVTVSS VL: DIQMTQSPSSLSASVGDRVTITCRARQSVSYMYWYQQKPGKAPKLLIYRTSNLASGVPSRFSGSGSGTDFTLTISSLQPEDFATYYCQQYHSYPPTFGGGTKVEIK
0.0041

What does the record list as koff for suPAR_DB02_D10 (scFv, V domains shown, scFv clone from phage display) VH: QVQLVQSGAEVKKPGASVKVSCKASGYTFTGYYMHWVRQAPGQGLEWMGWIDPEGGNTIYDQKFQGRVTMTRDTSTSTVYMELSSLRSEDTAVYYCARGYDVDWFVYWGQGTLVTVSS VL: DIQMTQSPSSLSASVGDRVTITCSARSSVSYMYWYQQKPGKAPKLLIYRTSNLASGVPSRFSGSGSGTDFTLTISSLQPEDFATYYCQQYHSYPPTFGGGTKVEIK ?
0.00178

Which koff is reported for this binder? suPAR_DB02_D02 (scFv, V domains shown, scFv clone from phage display) VH: QVQLVQSGAEVKKPGASVKVSCKASGDTFTSYYMHWVRQAPGQGLEWMGWIDHEGGNTSYAQKFQGRVTMTRDTSTSTVYMELSSLRSEDTAVYYCARGYDVDWFVYWGQGTLVTVSS VL: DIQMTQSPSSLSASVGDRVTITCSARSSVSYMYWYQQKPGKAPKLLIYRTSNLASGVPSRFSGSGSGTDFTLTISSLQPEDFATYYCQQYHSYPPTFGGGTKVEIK
0.00436
